protocol: protein stability index of a GFP-peptide fusion (yeast GPS) (PSI 1-4); higher = more stable; sorted into four equal gates, so the index is relative within each strain
setupConditions: doa10∆
Think of 3 as a floor: if protein stability index stands on it or above, it is true (1); beneath it, false (0).

Challenge: Does the reported protein stability index for DIGKEMSLRHFGHLMHY [RPN1] fall at or above the 3 mark?
Response given: false (0)

Challenge: Does the reported protein stability index for KSLEVVNADTVGKTVKQ [NSL1] fall at or above the 3 mark?
Response given: true (1)

Challenge: Does the reported protein stability index for IGAVYSGMGPDYRVLVD [PRE8] fall at or above the 3 mark?
Response given: true (1)

Challenge: Does the reported protein stability index for SHIESDSTSHNNGSSDK [MED1] fall at or above the 3 mark?
Response given: false (0)

Challenge: Does the reported protein stability index for PKNLSTPSTSSNGEFIP [CSE2] fall at or above the 3 mark?
Response given: false (0)

Challenge: Does the reported protein stability index for SAFACKTDEVIILGTNL [BRR2] fall at or above the 3 mark?
Response given: false (0)

Challenge: Does the reported protein stability index for LISSSLSNLSKDIKANL [YCS4] fall at or above the 3 mark?
Response given: false (0)

Challenge: Does the reported protein stability index for MVKNVKPSSPPDVKSLV [SIR4] fall at or above the 3 mark?
Response given: true (1)

Challenge: Does the reported protein stability index for KRKPAKSSSNRSCVSNS [RPN4] fall at or above the 3 mark?
Response given: false (0)

Challenge: Does the reported protein stability index for RLGGDDLRIRIKLDIVV [SNF5] fall at or above the 3 mark?
Response given: false (0)

Challenge: Does the reported protein stability index for QELKADSPFSLICQNNL [SRP72] fall at or above the 3 mark?
Response given: false (0)

Challenge: Does the reported protein stability index for MTMQVAVPRDELGRSNY [FAS1] fall at or above the 3 mark?
Response given: false (0)

Challenge: Does the reported protein stability index for NTHWGLVCPAETPEGQA [RPB2] fall at or above the 3 mark?
Response given: false (0)

Challenge: Does the reported protein stability index for FKQAKERVMKNKVEENL [RPT2] fall at or above the 3 mark?
Response given: true (1)

Challenge: Does the reported protein stability index for PVDHPHGGGNHQHIGKA [RPL2A] fall at or above the 3 mark?
Response given: true (1)

Challenge: Does the reported protein stability index for FSNRFLPVASPFHSHLL [FAS1] fall at or above the 3 mark?
Response given: false (0)

Challenge: Does the reported protein stability index for TITNSSSSSDIIVPDLI [YML103C/NUP188] fall at or above the 3 mark?
Response given: false (0)

Challenge: Does the reported protein stability index for NTNNNNTNNNNNPANNT [SWI1] fall at or above the 3 mark?
Response given: true (1)

Challenge: Does the reported protein stability index for LANNVESKLRDDLERLK [RPS18A] fall at or above the 3 mark?
Response given: true (1)

Challenge: Does the reported protein stability index for NLPEHIVPGTYIQERNP [RPS10A] fall at or above the 3 mark?
Response given: false (0)

Challenge: Does the reported protein stability index for QKKARTILQHLSEAWRC [PRP8] fall at or above the 3 mark?
Response given: false (0)

Challenge: Does the reported protein stability index for GEIDFIKNIGKSLKNNF [YML103C/NUP188] fall at or above the 3 mark?
Response given: false (0)

Challenge: Does the reported protein stability index for SYVETLDSMIELFKDYK [MED1] fall at or above the 3 mark?
Response given: true (1)

Challenge: Does the reported protein stability index for AKFRLILIESRIHRLAR [RPS13] fall at or above the 3 mark?
Response given: false (0)

Challenge: Does the reported protein stability index for NSESDSKSDSDSEERDP [ITC1] fall at or above the 3 mark?
Response given: true (1)

Challenge: Does the reported protein stability index for PHLLKQGLAMVEKYAPD [RRP42] fall at or above the 3 mark?
Response given: false (0)

Challenge: Does the reported protein stability index for QVLKCKESWDPNTTKTK [YGR119C/NUP57] fall at or above the 3 mark?
Response given: true (1)

Challenge: Does the reported protein stability index for ALPSTHKVTQKKDIKIG [SIR4] fall at or above the 3 mark?
Response given: false (0)

Challenge: Does the reported protein stability index for EYKSLFVVGVDNVSSQQ [RPP0] fall at or above the 3 mark?
Response given: true (1)

Challenge: Does the reported protein stability index for KKINRRNETSVDEEDEN [YCG1] fall at or above the 3 mark?
Response given: true (1)

Challenge: Does the reported protein stability index for TYGFSILDIVINNPVNL [FAS1] fall at or above the 3 mark?
Response given: false (0)

Challenge: Does the reported protein stability index for SAYVKAFYQKGNKLVEL [SMC1] fall at or above the 3 mark?
Response given: false (0)

Challenge: Does the reported protein stability index for NGDNSTTTNTDQNNATM [SNF12] fall at or above the 3 mark?
Response given: false (0)

Challenge: Does the reported protein stability index for FEQTAFSRHAQQQTSTF [SIR4] fall at or above the 3 mark?
Response given: false (0)

Challenge: Does the reported protein stability index for VQELLKVLNEISKTTLT [RPN3] fall at or above the 3 mark?
Response given: true (1)

Challenge: Does the reported protein stability index for NNTEKNDVTNKNINIGK [SIR4] fall at or above the 3 mark?
Response given: false (0)
